Test system: Trichophyton rubrum IFO 5467
experimental.protocol: Minimum inhibitory concentration (MIC), agar dilution method, standard strains
Format: cell-based
conditions.used: IFO5467; Trichophyton rubrum IFO 5467; aerobic, 168 hrs; read-out: Minimum inhibitory concentration to standard strains
parameter: MIC (µg/mL)
Give the value in µg/mL but do not write µg/mL after it.

* Cc1cccc(N(C)C(=S)Oc2ccc3ccccc3c2)c1 [P, Tolnaftate] | 0.1

Now for another entry.
Requested field: MIC. Item: `COC1=CC(=O)C[C@@H](C)[C@]12Oc1c(Cl)c(OC)cc(OC)c1C2=O`
6.25

----------
# MIC listing for each entry below
System: Staphylococcus aureus ATCC 6538P
experimental.protocol: Minimum inhibitory concentration (MIC), agar dilution method, standard strains
conditions.used: Staphylococcus aureus, ATCC6538P, 48 h, read-out: Minimum inhibitory concentration to standard strains
Your answer is read as µg/mL, so omit the unit and give the number.

• CC1(C)S[C@@H]2[C@H](NC(=O)[C@H](NC(=O)c3cnc4cccnc4c3O)c3ccccc3)C(=O)N2[C@H]1C(=O)O = 50

Requested field: MIC. Item: `CC1(C)S[C@@H]2[C@H](NC(=O)[C@H](C(=O)O)c3ccsc3)C(=O)N2[C@H]1C(=O)O`
3.13

----------
Tested on: Staphylococcus aureus ATCC 6538P
experimental.protocol: Minimum inhibitory concentration (MIC), agar dilution method, standard strains
conditions.used: Staphylococcus aureus, ATCC6538P, 48 h, read-out: Minimum inhibitory concentration to standard strains
parameter: MIC

* Cc1cccc(N(C)C(=S)Oc2ccc3ccccc3c2)c1 [P, Tolnaftate] | > 1000 µg/mL
* C=CCCCCCCCCC(=O)O [Q, Undecylenic acid] | > 1000 µg/mL

Next molecule, please.
Fill in: MIC of COC1=CC(=O)C[C@@H](C)[C@]12Oc1c(Cl)c(OC)cc(OC)c1C2=O [O, Griseofulvin] is ___
> 1000 µg/mL
